- System: Phakopsora pachyrhizi (F129L)
- runDescription: Protective control of soybean rust on soybeans (PHAKPA P6)
- Format: in vivo
- runParameters: protective P6, 4 ppm, soybean rust F129L
Could you mark each record True if its % PHAKPA (F129L) Disease level P6 at 4 ppm falls strictly under 80%, and False if it equals or exceeds it?

compound	className
CNC(=O)/C(=N/OC)c1cccc(C)c1CO/N=C(\C)c1ccccc1C1CC1 [compound 219]	False

Request: API: query returns whether the compound falls strictly under 80% in % PHAKPA (F129L) Disease level P6 at 4 ppm. Query: CO/N=C(/C(=O)OC)c1cccc(C)c1CO/N=C(\C)c1cc(C)cc(C)c1 [compound 94]
Response: True

Request: // next record CO/N=C(/C(=O)OC)c1cccc(C)c1CO/N=C(\C)c1cccc(Cl)c1C(F)(F)F [compound 421]
Response: False

Request: Thanks! And CNC(=O)/C(=N/OC)c1cccc(C)c1CO/N=C(/c1cccc(C(F)(F)F)c1)C(C)C [compound 207] ?
Response: False

Request: Further, for COC=C(C(=O)OC)c1cccc(C)c1CON=C(C)c1ccc(OC(F)(F)F)cc1Cl [compound 463] ?
Response: True

Request: Please answer likewise for CO/N=C(/C(=O)OC)c1cccc(C)c1CO/N=C(\C)c1ccc(Cc2ccccc2)cc1C(F)(F)F [compound 408]
Response: True

Request: Please do the same for CO/N=C(/C(=O)OC)c1cccc(C)c1CO/N=C(\C)c1ccccc1OC(F)(F)F [compound 236] as well.
Response: False

Request: Same again, this time with CNC(=O)/C(=N/OC)c1cccc(C)c1CO/N=C(\C)c1cc(C(F)(F)F)cc(F)c1F [compound 197]
Response: True

====

- System: Phakopsora pachyrhizi (F129L)
- runDescription: Protective control of soybean rust on soybeans (PHAKPA P2)
- Type: in vivo
- runParameters: P2 protective, 4 ppm, % diseased leaf area
Classify as follows. Reported PHAKPA (F129L) Disease level (%) P2 at 4 ppm greater than or equal to 40%: label 1. Reported PHAKPA (F129L) Disease level (%) P2 at 4 ppm below: label 0.

Request: Test whether the compound `CNC(=O)/C(=N/OC)c1cccc(C)c1CO/N=C(\C)c1cccc(Br)c1` records PHAKPA (F129L) Disease level (%) P2 at 4 ppm of 40% or higher.
Response: label 0

Request: Repeat for the following compound: CNC(=O)/C(=N/OC)c1ccccc1CO/N=C(\C)c1ccccc1 [reference compound]
Response: label 1

Request: Now give it for CNC(=O)/C(=N/OC)c1ccccc1CO/N=C(/c1ccccc1)C(F)F [reference compound] too.
Response: label 1

Request: CNC(=O)/C(=N/OC)c1ccccc1CO/N=C(\C)c1cc(Cl)cc(Cl)c1 [reference compound] ?
Response: label 1

Request: Then what about the compound `CC/C(=N\OCc1c(C)cccc1/C(=N\OC)C(=O)NC)c1cccc(C(F)(F)F)c1` ?
Response: label 0

Request: Ok, now `CO/N=C(/C(=O)OC)c1cccc(C)c1CO/N=C(\C)c1cccc(Cl)c1`
Response: label 0

Request: Record: CO/N=C(/C(=O)OC)c1ccccc1CO/N=C(\C)c1cccc(C(F)(F)F)c1 [Trifloxystrobin, trifloxystrobin, reference compound]
Response: label 1

Request: What would you report for `CO/N=C(/C(=O)OC)c1cccc(C)c1CO/N=C(\C)c1cccc(C)c1` ?
Response: label 0
